KM-12: reported GI50 for various molecules.
Property: GI50 (µM)

Some molecules with known GI50 results, for comparison:
[
  {
    "Molecule": "C/C(=C\\Cc1c(O)c(Cl)c(C)c(C=O)c1O)CC/C=C(\\C)C(C)O (stereo not drawn) [277-9-OH]",
    "Target system": "KM-12",
    "GI50 [µM]": 32
  },
  {
    "Molecule": "C/C(=C\\Cc1c(O)c(Cl)c(C)c(C=O)c1O)CC/C=C(\\C)[C@@H]1CC(=O)C(C)(C)O1 (racemic) [Ascofuranone]",
    "Target system": "KM-12",
    "GI50 [µM]": 9.3
  },
  {
    "Molecule": "CC(C)=CCC/C(C)=C/CC/C(C)=C/Cc1c(O)c(Cl)c(C)c(C=O)c1O [280-12]",
    "Target system": "KM-12",
    "GI50 [µM]": 2
  },
  {
    "Molecule": "COC(=O)/C(C)=C/CC/C(C)=C/Cc1c(O)c(Cl)c(C)c(C=O)c1O [275-10-COOMe]",
    "Target system": "KM-12",
    "GI50 [µM]": 6.4
  }
]

P. C/C(=C\COC(=O)C(C)C)CC/C(C)=C/Cc1c(O)c(Cl)c(C)c(C=O)c1O [287-12-OCOiPr]
Q. CC(=O)OC(C)/C(C)=C/CC/C(C)=C/Cc1c(O)c(Cl)c(C)c(C=O)c1O (stereo not drawn) [277-11-OAc]
Pick one: P or Q . Which has the bigger GI50 number? Answer by quoting the chosen item's label.
P
